Measured Log K1 of individual entries
# Test system: HTelo21 (DNA, G4) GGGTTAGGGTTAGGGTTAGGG
# Assay Details: ESI-MS peak intensities
# Recorded Conditions: NH4+ (150 mM ammonium acetate); 15% methanol added before injection; 5 µM DNA; site 1 of 2
Would you mind answering with just the numeric figure?

CN(C)CCCCCC(=O)c1ccc2c(c1)Cc1cc(C(=O)CCCCCN(C)C)ccc1O2; 4.6

// fetch Log K1; item: CN1CCN(CCCCCC(=O)c2ccc3c(c2)Cc2cc(C(=O)CCCCCN4CCN(C)CC4)ccc2O3)CC1 ; system: HTelo21 (DNA, G4) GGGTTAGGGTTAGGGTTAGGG 4.4

// fetch Log K1; item: O=C(CCCCCN1CCCCC1)c1ccc2c(c1)Cc1cc(C(=O)CCCCCN3CCCCC3)ccc1O2 ; system: HTelo21 (DNA, G4) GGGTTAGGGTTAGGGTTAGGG 4.7

// fetch Log K1; item: CN1CCN(CCCCCC(=O)c2ccc3oc4ccc(C(=O)CCCCCN5CCN(C)CC5)cc4c(=O)c3c2)CC1 ; system: HTelo21 (DNA, G4) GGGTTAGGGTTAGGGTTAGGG 4.1

// fetch Log K1; item: O=C(CCCCCN1CCCCC1)c1ccc2oc3ccc(C(=O)CCCCCN4CCCCC4)cc3c(=O)c2c1 ; system: HTelo21 (DNA, G4) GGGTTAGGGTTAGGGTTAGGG 4.4
